Source: the supplement of paper PMC7125110

B1: glmS ribozyme (parent)
chain: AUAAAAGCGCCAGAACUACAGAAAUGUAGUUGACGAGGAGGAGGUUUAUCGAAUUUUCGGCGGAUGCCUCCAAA

variants of: B1; test: self-cleavage kobs at 640 uM GlcN6P; higher = faster cleavage; RNA array; settings: with glucosamine-6-phosphate
This sample holds only a part of the variants without activity.
measured quantity: self-cleavage kobs at 640 uM GlcN6P

{"columns": ["record sequence", "self-cleavage kobs at 640 uM GlcN6P"],
 "data": [
  ["AUAAACGAGCCAGAACUACAGAAAUGUAGUUGACGAGGAGGAGGUUUAUCGAAUUUUCGGCGGAUGACUCCAAA", "< 1e-05 s⁻¹"]
]}

Read off the recorded self-cleavage kobs at 640 uM GlcN6P for AUAAACGCGCCAGAACUACAGAAAUGUAGUUGAAGAAAAGGAGGUUUAUCGAAUUUUCGGCGUAUGCUUGCAAA
< 1e-05 s⁻¹

Read off the recorded self-cleavage kobs at 640 uM GlcN6P for AUAAAAGCGCCAGAACUACAGAAAUGUAGUUGACGAUGAGGAGGUUUAUACAAUUUUCGGCGGAUGCCUCCAAA
< 1e-05 s⁻¹

Read off the recorded self-cleavage kobs at 640 uM GlcN6P for AUAAAAGCGCGAGAACUACAGAAAUGUAGGUGACGAGGAGGUGGUUUAUCGAUUUUUCGGCGUAAGCGUCCAAA
< 1e-05 s⁻¹

Read off the recorded self-cleavage kobs at 640 uM GlcN6P for AUAAAAGCGCCAGAACUACAGAAAUGUAGUUGACGAGGAGGAGCUUUAUCGAAUUUUCGGCGGAUGCAGCCAAA
< 1e-05 s⁻¹

Read off the recorded self-cleavage kobs at 640 uM GlcN6P for AUAAAAGCUGAAGAACUACAGAAAUGUAGUUGACGAGGAGGAGGUUUAUCGAAUUUUCGGCGGAUGCCUCCAAA
< 1e-05 s⁻¹

Read off the recorded self-cleavage kobs at 640 uM GlcN6P for AUAAAGGCGCCAGAACUACAGAAAUGUAGUUGACGAGGAGGAUGUUUAUCGAAUUUUCGGCGGACGCCUCCAAA
< 1e-05 s⁻¹

Read off the recorded self-cleavage kobs at 640 uM GlcN6P for AUAAAAGCGUCAGAACUACAGAAAUGUAGUUGACGAGGAGGAGGUUUAUCGAAUUUUCGUCGGAUGCCUCCAAA
< 1e-05 s⁻¹

Read off the recorded self-cleavage kobs at 640 uM GlcN6P for AUAAAACCGCCAGAACUACAGAAAUGUAGUUGACGAGGAGGAGGUUUAUCGAAUUUUCGGCGGAUGCUUCCAAA
< 1e-05 s⁻¹

Read off the recorded self-cleavage kobs at 640 uM GlcN6P for AUAAAAGCGCCAGAACUACAGAAAUGUAGUUGACGAGGAGGAGGAUUAGCGAAUUUUCGGCGGAUGCCUCCAAA
0.000385 s⁻¹
